Measurement record for UniProt P06276; quantity recorded: pIC50.
Sequence (P06276 whole entry): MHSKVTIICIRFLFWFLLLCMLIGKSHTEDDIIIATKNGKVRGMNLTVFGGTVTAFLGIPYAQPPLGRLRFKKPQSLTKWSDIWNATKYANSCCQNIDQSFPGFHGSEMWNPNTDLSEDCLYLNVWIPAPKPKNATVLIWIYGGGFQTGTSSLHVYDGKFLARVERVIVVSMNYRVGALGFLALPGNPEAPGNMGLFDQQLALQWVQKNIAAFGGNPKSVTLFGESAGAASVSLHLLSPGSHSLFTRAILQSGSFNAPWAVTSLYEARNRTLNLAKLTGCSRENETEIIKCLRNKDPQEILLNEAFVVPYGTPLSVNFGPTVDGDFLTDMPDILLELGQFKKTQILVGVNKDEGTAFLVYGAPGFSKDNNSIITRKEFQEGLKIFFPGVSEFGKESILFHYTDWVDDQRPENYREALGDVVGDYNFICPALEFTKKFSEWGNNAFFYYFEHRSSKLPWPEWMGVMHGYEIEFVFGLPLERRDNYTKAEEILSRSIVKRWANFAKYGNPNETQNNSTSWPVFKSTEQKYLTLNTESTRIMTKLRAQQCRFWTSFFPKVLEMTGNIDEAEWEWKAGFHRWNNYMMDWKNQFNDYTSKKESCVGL
The value called pIC50 is obtained by taking minus log10 of the concentration in mol/L.

>>> print(df.to_string())
                                chem_smiles  system_under_test  value_observed
0  COc1ccc(-c2cc(-c3ccc(Br)cc3)nc3[nH]nc(N)c23)cc1OC     UniProt P06276            6.16

Let's switch to this compound now.
# get_value(readout= pIC50, system= UniProt P06276) for `Nc1n[nH]c2nc(-c3ccc(Br)cc3)cc(-c3ccc(Br)cc3)c12` 6.77

###

Recorded measurements of pIC50, one per entry
SYSTEM UNDER TEST: Glycogen synthase kinase-3 beta (Homo sapiens, UniProt P49841)
Sequence (P49841 whole entry): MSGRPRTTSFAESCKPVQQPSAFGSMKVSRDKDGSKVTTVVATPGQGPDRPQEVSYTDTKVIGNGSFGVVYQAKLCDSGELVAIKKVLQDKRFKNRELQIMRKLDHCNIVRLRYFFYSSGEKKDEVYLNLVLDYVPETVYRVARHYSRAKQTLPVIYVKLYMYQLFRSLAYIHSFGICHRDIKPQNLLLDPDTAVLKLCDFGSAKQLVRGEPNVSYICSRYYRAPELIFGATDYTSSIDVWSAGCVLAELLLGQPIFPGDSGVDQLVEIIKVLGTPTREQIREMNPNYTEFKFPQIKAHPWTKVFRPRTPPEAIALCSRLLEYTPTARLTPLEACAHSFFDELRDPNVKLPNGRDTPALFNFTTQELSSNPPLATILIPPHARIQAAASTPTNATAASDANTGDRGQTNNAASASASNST
METHOD NOTES: Inhibition of human GSK3beta by luminescent microplate reader method
Non-standard residues stand in square brackets, D forms with d. Residues, ends and D or L forms follow the SMILES beside them. *: point of attachment. Myristoyl = CCCCCCCCCCCCCC(=O)*; pS = N[C@@H](COP(=O)(O)O)C(=O)O
Would you please state pIC50, meaning minus log10 of the concentration in mol/L, as a bare number?

Reference set (2 entries):
COMPOUND	MEASUREMENT LABEL	VALUE OBSERVED
COc1ccc(-c2cc(-c3ccc(Br)cc3)nc3[nH]nc(N)c23)cc1OC	pIC50	6.59
Nc1n[nH]c2nc(-c3ccc(Br)cc3)cc(-c3ccc(Br)cc3)c12	pIC50	6.68

Alright, here's another compound for you.
Lab note: need pIC50 for CCCCCCCCCCCCCC(=O)N[C@@H](CCCCN)C(=O)N[C@@H](CCC(=O)O)C(=O)N[C@@H](C)C(=O)N1CCC[C@H]1C(=O)N1CCC[C@H]1C(=O)N[C@@H](CO)C(=O)N1CCC[C@H]1C(=O)N1CCC[C@H]1C(=O)N[C@@H](CCC(N)=O)C(=O)N[C@@H](COP(=O)(O)O)C(=O)N1CCC[C@H]1C(=O)O (Myristoyl-KEAPPSPPQ[pS]P-OH) on Glycogen synthase kinase-3 beta (Homo sapiens, UniProt P49841), anyone have it? 6.00

###

SYSTEM UNDER TEST: Microtubule-associated protein tau (Homo sapiens)
Sequence (P10636 whole entry): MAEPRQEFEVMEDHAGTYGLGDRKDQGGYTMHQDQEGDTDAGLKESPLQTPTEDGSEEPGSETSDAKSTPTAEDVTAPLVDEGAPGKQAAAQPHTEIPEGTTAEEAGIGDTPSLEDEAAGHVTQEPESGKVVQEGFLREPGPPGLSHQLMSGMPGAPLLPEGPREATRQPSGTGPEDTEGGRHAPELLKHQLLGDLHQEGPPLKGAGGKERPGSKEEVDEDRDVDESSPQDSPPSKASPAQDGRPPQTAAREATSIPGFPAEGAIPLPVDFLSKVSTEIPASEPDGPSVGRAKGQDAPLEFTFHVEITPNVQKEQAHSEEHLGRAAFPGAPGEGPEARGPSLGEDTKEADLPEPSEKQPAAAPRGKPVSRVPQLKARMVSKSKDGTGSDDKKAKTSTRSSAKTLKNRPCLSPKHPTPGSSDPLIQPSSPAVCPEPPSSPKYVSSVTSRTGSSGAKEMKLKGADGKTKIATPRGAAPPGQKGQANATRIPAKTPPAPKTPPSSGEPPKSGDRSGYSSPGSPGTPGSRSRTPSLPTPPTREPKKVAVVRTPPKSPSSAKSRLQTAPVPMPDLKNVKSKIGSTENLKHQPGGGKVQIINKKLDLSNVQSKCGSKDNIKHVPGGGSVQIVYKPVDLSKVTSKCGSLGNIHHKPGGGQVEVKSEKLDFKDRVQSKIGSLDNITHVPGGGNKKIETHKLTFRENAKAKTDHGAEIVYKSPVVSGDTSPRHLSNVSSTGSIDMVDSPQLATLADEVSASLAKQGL
METHOD NOTES: Inhibition of human tau protein aggregation incubated for 1.5 hrs by TMB substrate based ELISA
MEASUREMENT LABEL: pIC50
Schema: pIC50 number; meaning minus log10 of the concentration expressed in molar units.

                                chem_smiles  value_observed
0  Nc1n[nH]c2nc(-c3ccc(Br)cc3)cc(-c3ccc(Br)cc3)c12            4.93

Report pIC50 for `COc1ccc(-c2cc(-c3ccc(Br)cc3)nc3[nH]nc(N)c23)cc1OC` please. 4.69
